Assay Name: In vivo pharmacokinetic study in rats
Parameters: species or system SD rats
Condition: rat, plasma; 24 h; oral administration of everolimus 10.000 mg/kg, male SD rats
Recorded Metric: concentration at 24 h (ng/mL)
Give the quantity in ng/mL, number only.

// returns reported concentration at 24 h for input CO[C@H]1C[C@@H]2CC[C@@H](C)[C@@](O)(O2)C(=O)C(=O)N2CCCC[C@H]2C(=O)O[C@H]([C@H](C)C[C@@H]2CC[C@@H](OCCO)[C@H](OC)C2)CC(=O)[C@H](C)/C=C(\C)[C@@H](O)[C@@H](OC)C(=O)[C@H](C)C[C@H](C)/C=C/C=C/C=C/1C [Everolimus, reference compound]
2.2

###

Assay Name: In vivo pharmacokinetic study in rats
Parameters: species or system SD rats
Condition: Sprague-Dawley (SD), rat; everolimus in plasma; everolimus PO 10 mg/kg, male SD rats
Recorded Metric: AUC(0-t) (ng·h/mL)
Give the quantity in ng·h/mL, number only.

// returns reported AUC(0-t) for input CO[C@H]1C[C@@H]2CC[C@@H](C)[C@@](O)(O2)C(=O)C(=O)N2CCCC[C@H]2C(=O)O[C@H]([C@H](C)C[C@@H]2CC[C@@H](OCCO)[C@H](OC)C2)CC(=O)[C@H](C)/C=C(\C)[C@@H](O)[C@@H](OC)C(=O)[C@H](C)C[C@H](C)/C=C/C=C/C=C/1C [Everolimus, reference compound]
454

###

Assay Name: In vivo pharmacokinetic study in rats
Parameters: species or system SD rats
Condition: rat, plasma; 0 h; oral administration of everolimus 10.000 mg/kg, male SD rats
Recorded Metric: concentration at 0 h (ng/mL)
Give the quantity in ng/mL, number only.

// returns reported concentration at 0 h for input CO[C@H]1C[C@@H]2CC[C@@H](C)[C@@](O)(O2)C(=O)C(=O)N2CCCC[C@H]2C(=O)O[C@H]([C@H](C)C[C@@H]2CC[C@@H](OCCO)[C@H](OC)C2)CC(=O)[C@H](C)/C=C(\C)[C@@H](O)[C@@H](OC)C(=O)[C@H](C)C[C@H](C)/C=C/C=C/C=C/1C [Everolimus, reference compound]
0

###

Assay Name: Test for solubility in water
Type: physicochemical
Condition: water, thermodynamic from solid
Recorded Metric: solubility (µg/mL)
Give the quantity in µg/mL, number only.

// returns reported solubility for input CO[C@H]1C[C@@H]2CC[C@@H](C)[C@@](O)(O2)C(=O)C(=O)N2CCCC[C@H]2C(=O)OC([C@H](C)C[C@@H]2CC[C@@H](OC(=O)C(C)(CO)COC(=O)CSC[C@H](NC(=O)CC[C@H](N)C(=O)O)C(=O)NCC(=O)O)[C@H](OC)C2)CC(=O)[C@H](C)/C=C(\C)[C@@H](O)[C@@H](OC)C(=O)[C@H](C)C[C@@H](C)\C=C/C=C/C=C/1C (stereo partly drawn) [Compound I-5]
580

// returns reported solubility for input CO[C@H]1C[C@@H]2CC[C@@H](C)[C@@](O)(O2)C(=O)C(=O)N2CCCC[C@H]2C(=O)OC([C@H](C)C[C@@H]2CC[C@@H](OC(=O)C(C)(COC(=O)CSC[C@H](NC(=O)CC[C@H](N)C(=O)O)C(=O)NCC(=O)O)COC(=O)CSC[C@H](NC(=O)CC[C@H](N)C(=O)O)C(=O)NCC(=O)O)[C@H](OC)C2)CC(=O)[C@H](C)/C=C(\C)[C@@H](OC(=O)CSC[C@H](NC(=O)CC[C@H](N)C(=O)O)C(=O)NCC(=O)O)[C@@H](OC)C(=O)[C@H](C)C[C@@H](C)\C=C/C=C/C=C/1C (stereo partly drawn) [Compound I-7]
830

###

Assay Name: In vivo pharmacokinetic study in rats
Design: species or system SD rats
Condition: Sprague-Dawley (SD), rat, plasma; 3 h; oral administration of everolimus 10.000 mg/kg, male SD rats
Recorded Metric: concentration at 3 h
Remember to quote the unit after the number.

// returns reported concentration at 3 h for input CO[C@H]1C[C@@H]2CC[C@@H](C)[C@@](O)(O2)C(=O)C(=O)N2CCCC[C@H]2C(=O)O[C@H]([C@H](C)C[C@@H]2CC[C@@H](OCCO)[C@H](OC)C2)CC(=O)[C@H](C)/C=C(\C)[C@@H](O)[C@@H](OC)C(=O)[C@H](C)C[C@H](C)/C=C/C=C/C=C/1C [Everolimus, reference compound]
64.3 ng/mL

###

Assay Name: In vivo pharmacokinetic study in rats
Parameters: species or system SD rats
Condition: rat, plasma; 0.5 h; oral administration of everolimus 10.000 mg/kg, male SD rats
Recorded Metric: concentration at 0.5 h

// returns reported concentration at 0.5 h for input CO[C@H]1C[C@@H]2CC[C@@H](C)[C@@](O)(O2)C(=O)C(=O)N2CCCC[C@H]2C(=O)O[C@H]([C@H](C)C[C@@H]2CC[C@@H](OCCO)[C@H](OC)C2)CC(=O)[C@H](C)/C=C(\C)[C@@H](O)[C@@H](OC)C(=O)[C@H](C)C[C@H](C)/C=C/C=C/C=C/1C [Everolimus, reference compound]
99.9 ng/mL

###

Assay Name: Test for solubility in water
Assay type: physicochemical
Condition: water, thermodynamic from solid
Recorded Metric: solubility (µg/mL)
Give the quantity in µg/mL, number only.

// returns reported solubility for input CO[C@H]1C[C@@H]2CC[C@@H](C)[C@@](O)(O2)C(=O)C(=O)N2CCCC[C@H]2C(=O)OC([C@H](C)C[C@@H]2CC[C@@H](OC(=O)CSC[C@H](NC(=O)CC[C@H](N)C(=O)O)C(=O)NCC(=O)O)[C@H](OC)C2)CC(=O)[C@H](C)/C=C(\C)[C@@H](O)[C@@H](OC)C(=O)[C@H](C)C[C@@H](C)\C=C/C=C/C=C/1C (stereo partly drawn)
470

// returns reported solubility for input CO[C@H]1C[C@@H]2CC[C@@H](C)[C@@](O)(O2)C(=O)C(=O)N2CCCC[C@H]2C(=O)OC([C@H](C)C[C@@H]2CC[C@@H](OC(=O)CSC[C@H](NC(=O)CC[C@H](N)C(=O)O)C(=O)NCC(=O)O)[C@H](OC)C2)CC(=O)[C@H](C)/C=C(\C)[C@@H](OC(=O)CSC[C@H](NC(=O)CC[C@H](N)C(=O)O)C(=O)NCC(=O)O)[C@@H](OC)C(=O)[C@H](C)C[C@@H](C)\C=C/C=C/C=C/1C (stereo partly drawn)
610

###

Assay Name: In vivo pharmacokinetic study in rats
Design: species or system SD rats
Condition: rat, plasma; 2 h; oral administration of everolimus 10.000 mg/kg, male SD rats
Recorded Metric: concentration at 2 h (ng/mL)
Give the quantity in ng/mL, number only.

// returns reported concentration at 2 h for input CO[C@H]1C[C@@H]2CC[C@@H](C)[C@@](O)(O2)C(=O)C(=O)N2CCCC[C@H]2C(=O)O[C@H]([C@H](C)C[C@@H]2CC[C@@H](OCCO)[C@H](OC)C2)CC(=O)[C@H](C)/C=C(\C)[C@@H](O)[C@@H](OC)C(=O)[C@H](C)C[C@H](C)/C=C/C=C/C=C/1C [Everolimus, reference compound]
69.7

###

Assay Name: Test for solubility in water
Assay type: physicochemical
Condition: pure water, water, thermodynamic from solid; Table 2; compounds I-5, I-6, I-7 converted to temsirolimus; read-out: Solubility in water
Recorded Metric: solubility

// returns reported solubility for input CO[C@H]1C[C@@H]2CC[C@@H](C)[C@@](O)(O2)C(=O)C(=O)N2CCCC[C@H]2C(=O)O[C@H]([C@H](C)C[C@@H]2CC[C@@H](OC(=O)C(C)(CO)CO)[C@H](OC)C2)CC(=O)[C@H](C)/C=C(\C)[C@@H](O)[C@@H](OC)C(=O)[C@H](C)C[C@H](C)/C=C/C=C/C=C/1C [Temsirolimus, reference compound]
~1 µg/mL

###

Tested on: prostate cancer cell DU145
Assay Name: In vitro activity assay, growth of DU145
Assay type: cell-based
Condition: Homo sapiens; DU-145; 48 h
Recorded Metric: IC50 (µM)
Give the quantity in µM, number only.

// returns reported IC50 for input CO[C@H]1C[C@@H]2CC[C@@H](C)[C@@](O)(O2)C(=O)C(=O)N2CCCC[C@H]2C(=O)OC([C@H](C)C[C@@H]2CC[C@@H](OC(=O)C(C)(COC(=O)CSC[C@H](NC(=O)CC[C@H](N)C(=O)O)C(=O)NCC(=O)O)COC(=O)CSC[C@H](NC(=O)CC[C@H](N)C(=O)O)C(=O)NCC(=O)O)[C@H](OC)C2)CC(=O)[C@H](C)/C=C(\C)[C@@H](OC(=O)CSC[C@H](NC(=O)CC[C@H](N)C(=O)O)C(=O)NCC(=O)O)[C@@H](OC)C(=O)[C@H](C)C[C@@H](C)\C=C/C=C/C=C/1C (some centres unmarked)
82.5

// returns reported IC50 for input CO[C@H]1C[C@@H]2CC[C@@H](C)[C@@](O)(O2)C(=O)C(=O)N2CCCC[C@H]2C(=O)O[C@H]([C@H](C)C[C@@H]2CC[C@@H](OCCO)[C@H](OC)C2)CC(=O)[C@H](C)/C=C(\C)[C@@H](O)[C@@H](OC)C(=O)[C@H](C)C[C@H](C)/C=C/C=C/C=C/1C [Everolimus, reference compound]
57.3

// returns reported IC50 for input CO[C@H]1C[C@@H]2CC[C@@H](C)[C@@](O)(O2)C(=O)C(=O)N2CCCC[C@H]2C(=O)O[C@H]([C@H](C)C[C@@H]2CC[C@@H](OC(=O)C(C)(CO)CO)[C@H](OC)C2)CC(=O)[C@H](C)/C=C(\C)[C@@H](O)[C@@H](OC)C(=O)[C@H](C)C[C@H](C)/C=C/C=C/C=C/1C [Temsirolimus, reference compound]
65.4

// returns reported IC50 for input CO[C@H]1C[C@@H]2CC[C@@H](C)[C@@](O)(O2)C(=O)C(=O)N2CCCC[C@H]2C(=O)O[C@H]([C@H](C)C[C@@H]2CC[C@@H](O)[C@H](OC)C2)CC(=O)[C@H](C)/C=C(\C)[C@@H](O)[C@@H](OC)C(=O)[C@H](C)C[C@H](C)/C=C/C=C/C=C/1C [Sirolimus, reference compound]
68.5

// returns reported IC50 for input CO[C@H]1C[C@@H]2CC[C@@H](C)[C@@](O)(O2)C(=O)C(=O)N2CCCC[C@H]2C(=O)OC([C@H](C)C[C@@H]2CC[C@@H](OC(=O)C(C)(CO)COC(=O)CSC[C@H](NC(=O)CC[C@H](N)C(=O)O)C(=O)NCC(=O)O)[C@H](OC)C2)CC(=O)[C@H](C)/C=C(\C)[C@@H](O)[C@@H](OC)C(=O)[C@H](C)C[C@@H](C)\C=C/C=C/C=C/1C (some centres unmarked)
60.8

// returns reported IC50 for input CO[C@H]1C[C@@H]2CC[C@@H](C)[C@@](O)(O2)C(=O)C(=O)N2CCCC[C@H]2C(=O)OC([C@H](C)C[C@@H]2CC[C@@H](OC(=O)CSC[C@H](NC(=O)CC[C@H](N)C(=O)O)C(=O)NCC(=O)O)[C@H](OC)C2)CC(=O)[C@H](C)/C=C(\C)[C@@H](O)[C@@H](OC)C(=O)[C@H](C)C[C@@H](C)\C=C/C=C/C=C/1C (some centres unmarked)
62.5

// returns reported IC50 for input CO[C@H]1C[C@@H]2CC[C@@H](C)[C@@](O)(O2)C(=O)C(=O)N2CCCC[C@H]2C(=O)OC([C@H](C)C[C@@H]2CC[C@@H](OC(=O)CSC[C@H](NC(=O)CC[C@H](N)C(=O)O)C(=O)NCC(=O)O)[C@H](OC)C2)CC(=O)[C@H](C)/C=C(\C)[C@@H](OC(=O)CSC[C@H](NC(=O)CC[C@H](N)C(=O)O)C(=O)NCC(=O)O)[C@@H](OC)C(=O)[C@H](C)C[C@@H](C)\C=C/C=C/C=C/1C (some centres unmarked)
93.3

// returns reported IC50 for input CO[C@H]1C[C@@H]2CC[C@@H](C)[C@@](O)(O2)C(=O)C(=O)N2CCCC[C@H]2C(=O)OC([C@H](C)C[C@@H]2CC[C@@H](OCCOC(=O)CSC[C@H](NC(=O)CC[C@H](N)C(=O)O)C(=O)NCC(=O)O)[C@H](OC)C2)CC(=O)[C@H](C)/C=C(\C)[C@@H](O)[C@@H](OC)C(=O)[C@H](C)C[C@@H](C)\C=C/C=C/C=C/1C (some centres unmarked)
56.2

Sourced from patent US10442835B2
